FYI, the data here is from patent US20230416232A1.

Biological target: EGFR (H773insNPH) expressing Ba/F3 stable cell line (Homo sapiens, UniProt P00533, DUP771-773, cells depend on it)
Sequence (P00533 with tags, fused parts or gaps DUP771-773): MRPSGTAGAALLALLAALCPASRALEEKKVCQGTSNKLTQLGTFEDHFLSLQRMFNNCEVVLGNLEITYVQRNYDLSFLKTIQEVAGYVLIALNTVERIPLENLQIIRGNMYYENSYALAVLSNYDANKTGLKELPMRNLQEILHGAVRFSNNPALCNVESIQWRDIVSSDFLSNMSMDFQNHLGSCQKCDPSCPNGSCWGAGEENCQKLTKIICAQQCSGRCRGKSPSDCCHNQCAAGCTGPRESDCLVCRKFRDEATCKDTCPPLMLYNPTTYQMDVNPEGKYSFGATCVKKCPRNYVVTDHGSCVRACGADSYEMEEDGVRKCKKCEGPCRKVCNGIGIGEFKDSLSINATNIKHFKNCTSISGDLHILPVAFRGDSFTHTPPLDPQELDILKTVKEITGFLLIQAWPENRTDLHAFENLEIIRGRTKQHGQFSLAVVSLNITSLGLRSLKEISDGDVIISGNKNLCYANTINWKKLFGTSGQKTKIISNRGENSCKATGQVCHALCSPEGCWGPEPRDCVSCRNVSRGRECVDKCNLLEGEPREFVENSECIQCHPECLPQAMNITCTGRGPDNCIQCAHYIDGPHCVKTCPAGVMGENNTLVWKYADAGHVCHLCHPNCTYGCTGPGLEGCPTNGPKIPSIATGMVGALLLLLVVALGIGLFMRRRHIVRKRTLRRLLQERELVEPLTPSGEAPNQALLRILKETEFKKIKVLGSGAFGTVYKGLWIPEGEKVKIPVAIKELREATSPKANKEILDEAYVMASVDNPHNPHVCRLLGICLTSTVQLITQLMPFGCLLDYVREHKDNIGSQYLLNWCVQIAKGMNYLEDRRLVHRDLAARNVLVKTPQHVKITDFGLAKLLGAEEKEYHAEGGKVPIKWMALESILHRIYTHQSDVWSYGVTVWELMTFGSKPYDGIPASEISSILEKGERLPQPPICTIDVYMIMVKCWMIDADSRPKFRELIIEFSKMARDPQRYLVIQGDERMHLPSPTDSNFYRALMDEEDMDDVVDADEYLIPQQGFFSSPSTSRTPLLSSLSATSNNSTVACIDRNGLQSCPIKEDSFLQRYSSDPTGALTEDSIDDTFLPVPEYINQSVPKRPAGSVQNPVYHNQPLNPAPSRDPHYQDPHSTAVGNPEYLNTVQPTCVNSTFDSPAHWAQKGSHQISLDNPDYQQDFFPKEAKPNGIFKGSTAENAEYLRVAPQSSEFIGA
Assay: Cellular proliferation (Alamar Blue) assay, EGFR (H773insNPH) Ba/F3
Assay type: cell-based
Settings: 72 hr, read-out: NPH IC50
measured.parameter: GI50 (µM)

Example entries and their recorded answers appear below.
test_smiles=C=CC(=O)Nc1ccc(F)c(Nc2nc(Nc3cnn(CCN(C)C)c3)ncc2-c2ccc(Br)c(Cl)c2)c1 measured_parameter=GI50 observed=0.056
test_smiles=C=CC(=O)Nc1ccc(F)c(Nc2nc(Nc3cnn(CCN(C)C)c3)ncc2-c2ccc(Cl)c(Cl)c2)c1 measured_parameter=GI50 observed=0.214

(A) C=CC(=O)Nc1ccc(F)c(Nc2nc(Nc3cnn(C)c3)ncc2-c2ccc(F)c(Cl)c2)c1
(B) C=CC(=O)Nc1ccc(F)c(Nc2nc(Nc3cnn(C)c3)ncc2-c2ccc(C(F)(F)F)cc2F)c1
**Query** Could you tell me which of A and B has the lower GI50 reading? Use the label to indicate which entry you chose.
**Result** A
